Biological target: Bovine Adrenal Estrogen Sulfotransferase (Bos taurus, UniProt P19217)
Construct: The enzyme was isolated from the bovine adrenals; from tissue; host or cells: bovine adrenals; purified by ammonium sulfate fractionation and chromatography on DEAE-cellulose or DEAE-Sephadex A-50
Sequence (P19217 1-295): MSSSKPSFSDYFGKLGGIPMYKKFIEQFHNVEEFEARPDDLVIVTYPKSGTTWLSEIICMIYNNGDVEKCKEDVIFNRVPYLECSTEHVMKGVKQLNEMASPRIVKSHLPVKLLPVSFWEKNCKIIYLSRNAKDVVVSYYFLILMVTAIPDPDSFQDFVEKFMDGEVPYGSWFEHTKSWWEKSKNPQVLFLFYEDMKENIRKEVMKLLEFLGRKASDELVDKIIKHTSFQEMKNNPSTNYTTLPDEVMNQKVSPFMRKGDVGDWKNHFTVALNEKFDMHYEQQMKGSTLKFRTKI
Assay: Inhibition of bovine adrenal estrogen sulfotransferase (estrone sulfurylation)
Assay type: biochemical
Conditions: pH 8.1, read-out: Fractional Inhibition (Table I)
Outcome label depends on inhibition at 22.2 µM relative to 20%: at/above gives True, below gives False.

Example entries and their recorded answers appear below.
- molecule: "C[C@]12CC[C@@H]3c4ccc(OC(=O)c5ccccc5)cc4CC[C@H]3[C@@H]1CC[C@@H]2O"
  test-system: "Bovine Adrenal Estrogen Sulfotransferase (Bos taurus, UniProt P19217)"
  class-label: "False"
- molecule: "C[C@]12CCC(=O)C[C@@H]1CC[C@@H]1[C@@H]2CC[C@]2(C)[C@@H](O)CC[C@@H]12 [17β-Hydroxy-5α-androstane-3-one]"
  test-system: "Bovine Adrenal Estrogen Sulfotransferase (Bos taurus, UniProt P19217)"
  class-label: "True"
- molecule: "C[C@]12CC[C@H](O)CC1=CC[C@@H]1[C@@H]2CC[C@]2(C)C(=O)CC[C@@H]12 [3β-Hydroxy-5-androstene-17-one]"
  test-system: "Bovine Adrenal Estrogen Sulfotransferase (Bos taurus, UniProt P19217)"
  class-label: "True"
- molecule: "C[C@]12CC[C@H](O)C[C@H]1CC[C@@H]1[C@@H]2CC[C@]2(C)C(=O)CC[C@@H]12 [3β-Hydroxy-5β-androstane-17-one]"
  test-system: "Bovine Adrenal Estrogen Sulfotransferase (Bos taurus, UniProt P19217)"
  class-label: "False"
- molecule: "C[C@]12CC[C@H](O)C[C@@H]1CC[C@@H]1[C@@H]2CC[C@]2(C)[C@@H](O)CC[C@@H]12"
  test-system: "Bovine Adrenal Estrogen Sulfotransferase (Bos taurus, UniProt P19217)"
  class-label: "True"
- molecule: "C[C@]12CC[C@H]3[C@@H](CC=C4C[C@@H](O)CC[C@@]43C)[C@@H]1CC[C@@H]2O"
  test-system: "Bovine Adrenal Estrogen Sulfotransferase (Bos taurus, UniProt P19217)"
  class-label: "True"

Is inhibition at 22.2 µM for C[C@]12CCC(=O)C[C@H]1CC[C@@H]1[C@@H]2CC[C@]2(C)[C@@H](O)CC[C@@H]12 [17β-Hydroxy-5β-androstane-3-one] at or above 20%?
True

====

assay: Oxidation and sulfurylation of tritiated E2 by human endometrial curettings; assay type: in vitro ADME; conditions: human, endometrium, Table IV; proliferative days 4-7; 55, 118, 329 mg tissue by row; 2 h, 3×10^-9 M E2; read-out: Percent of tritiated E2 oxidized to estrone, proliferative
readout-type: metabolised at 2 h, 0.003 µM (%)
Your answer should be a plain number; it is taken to be in %.

Tell me the measured metabolised at 2 h, 0.003 µM of C[C@]12CC[C@@H]3c4ccc(O)cc4CC[C@H]3[C@@H]1CC[C@@H]2O , please.
29
